Tested on: castrate Sprague-Dawley rats
Assay: Hershberger test, subcutaneous administration for seven days (ventral prostate weight)
Type: in vivo
Conditions: ventral prostate weight assay following subcutaneous administration; alcohol of G = 1.0 (assigned); value is for the free alcohol of the listed ester
Description: Immature (about 21-day-old) Sprague-Dawley rats were orchidectomized under anesthesia, and randomly assignee to groups of ten animals for each dose level of the active undergoing testing. Each active was dissolved in 10% ethanol/sesame oil and administered by gavage (oral) or subcutaneous injection each day for seven days beginning on the date of the orchidectomy. […]
metric: Androgenic Potency of Corresponding Alcohol

Examples with their reported Androgenic Potency of Corresponding Alcohol follow.
CCCC[C@H]1CC[C@H](C(=O)O[C@H]2CC[C@H]3[C@H]4[C@H](CC[C@]23C)[C@H]2CCC(=O)C=C2C[C@H]4C)CC1 : 8.1^3
CCCCC1CCC(C(=O)O[C@H]2CC[C@H]3[C@@H]4CCC5=CC(=O)CC[C@]5(C)[C@H]4CC[C@]23C)CC1 (stereo partly drawn) [CDB-1781a, Testosterone bucyclate] : 1.0 (assigned)

Pending molecule:
Any idea what its Androgenic Potency of Corresponding Alcohol is? The molecule is CCCCC1CCC(C(=O)OC2CCCC3C4C(C)CC5=CC(=O)CCC5(C)C4CCC23C)CC1 (stereo not drawn)
36.4-61.7^3
